Sourced from ChEMBL document CHEMBL2429726

Below: a set of entries, each annotated with reported pIC50.
target: Gamma-secretase; assay: Inhibition of gamma secretase-mediated amyloid beta42 production in HEK293 cells expressing APP after 5 hrs by sandwich immunoassay
Answer as the number alone; pIC50 is minus log10 of concentration in mol/L.

// known answers, use as guide
> print(dat)
                                   compound  result
1  COc1cc(-c2noc3c2CCCC3(O)c2cc(F)cc(F)c2)ccc1-n1cnc(C)c1 (stereo not drawn)    6.72
2  COc1cc(-c2noc3c2CCCC3Nc2ccc(F)cc2)ccc1-n1cnc(C)c1 (stereo not drawn)    7.41

Continue with the next compound.
// pIC50 value for COc1cc(-c2noc3c2CCCC3NCc2cc(F)cc(F)c2)ccc1-n1cnc(C)c1 (stereo not drawn) : 7.54
